These entries and their values trace back to ChEMBL document CHEMBL1149648.

// reported inhibition at 100 µM for each item listed
system: A2780; assay: Cytotoxicity against human A2780 cells at 100 uM after 72 hrs by MTT assay; format: functional; settings: A2780, 72 h
Property measured: inhibition at 100 µM (%)

1) O=C1[C@@H]2[C@H](C(=O)N1c1ccc([N+](=O)[O-])cc1)[C@@H]1CC[C@H]2O1    53
2) O=C1[C@@H]2[C@H](C(=O)N1c1ccccc1)[C@@H]1CC[C@H]2O1    90
3) O=C1[C@@H]2[C@H](C(=O)N1CCCN1C(=O)[C@@H]3[C@H](C1=O)[C@@H]1CC[C@H]3O1)[C@@H]1CC[C@H]2O1    31
4) COc1ccc(CN2C(=O)[C@@H]3[C@H](C2=O)[C@@H]2CC[C@H]3O2)cc1    20
5) CCCCCCCCCCN1C(=O)[C@@H]2[C@H](C1=O)[C@@H]1CC[C@H]2O1    44
6) O=C1[C@@H]2[C@H](C(=O)N1CC1CO1)[C@@H]1CC[C@H]2O1 (stereo partly specified)    40
7) O=C1[C@@H]2[C@H](C(=O)N1N1CCOCC1)[C@@H]1CC[C@H]2O1    7
8) O=C1[C@@H]2[C@H](C(=O)N1CCCCCCO)[C@@H]1CC[C@H]2O1    18
9) C=CCN1C(=O)[C@@H]2[C@H](C1=O)[C@@H]1CC[C@H]2O1    67
10) CCCCCCCCCCCCN1C(=O)[C@@H]2[C@H](C1=O)[C@@H]1CC[C@H]2O1    40
11) O=C1[C@@H]2[C@H](C(=O)N1CCO)[C@@H]1CC[C@H]2O1    15
12) O=C1[C@@H]2[C@H](C(=O)N1c1ccc(O)cc1)[C@@H]1CC[C@H]2O1    15
13) O=C(O)CCCCCN1C(=O)[C@@H]2[C@H](C1=O)[C@@H]1CC[C@H]2O1    52
14) CCCCCCCCN1C(=O)[C@@H]2[C@H](C1=O)[C@@H]1CC[C@H]2O1    50
